Data origin, for the record: ChEMBL document CHEMBL1138896

Target: GABA-A receptor; alpha-3/beta-3/gamma-2 (Homo sapiens) (UniProt P18507+P28472+P34903)
Test: Efficacy against human recombinant GABA-Aalpha3 plus beta-3-gamma-2 receptor expressed in L(tk-) cells assessed as modulation of chloride ion by whole cell patch clamp method relative to chlorodiazepoxide
Format: functional, cell-based
endpoint_name: Efficacy

structure=Cn1ncnc1COc1nn2c(-c3ccccc3F)nncc2c1-c1cccc(C#N)c1 endpoint_name=Efficacy measured_result=0.28
structure=Cn1ncnc1COc1nn2c(C3CC3)nncc2c1-c1ccccc1F endpoint_name=Efficacy measured_result=-0.01
structure=Cn1ncnc1COc1nn2c(-c3ccccc3F)nncc2c1-c1ccncc1 endpoint_name=Efficacy measured_result=0.19
structure=Cn1ncnc1COc1nn2c(-c3ccccc3Cl)nncc2c1-c1ccccc1F endpoint_name=Efficacy measured_result=0.02
structure=Cn1ncnc1COc1nn2c(-c3ccccc3F)nncc2c1-c1c(F)cccc1F endpoint_name=Efficacy measured_result=0.45
structure=Cn1ncnc1COc1nn2c(-c3ccccc3F)nncc2c1-c1cccc(CO)c1 endpoint_name=Efficacy measured_result=0.5
structure=Cn1ncnc1COc1nn2c(-c3c(F)ccc(F)c3F)nncc2c1-c1ccccc1F endpoint_name=Efficacy measured_result=0.55
structure=Cn1ncnc1COc1nn2c(-c3ccccc3F)nncc2c1-c1cccnc1 endpoint_name=Efficacy measured_result=0.52
structure=Cn1ncnc1COc1nn2c(-c3ccccc3F)nncc2c1-c1cccc(N)c1 endpoint_name=Efficacy measured_result=0.38
structure=Cn1ncnc1COc1nn2c(-c3cccnc3)nncc2c1-c1ccccc1F endpoint_name=Efficacy measured_result=0.16
structure=Cn1ncnc1COc1nn2c(-c3cccc(F)c3)nncc2c1-c1ccccc1F endpoint_name=Efficacy measured_result=0.57
structure=Cn1ncnc1COc1nn2c(-c3c(F)cccc3F)nncc2c1-c1ccccc1F endpoint_name=Efficacy measured_result=0.55
structure=Cn1ncnc1COc1nn2c(-c3ccoc3)nncc2c1-c1ccccc1F endpoint_name=Efficacy measured_result=-0.12
structure=Cn1ncnc1COc1nn2c(-c3ccccc3F)nncc2c1-c1cccs1 endpoint_name=Efficacy measured_result=0.12
structure=Cn1ncnc1COc1nn2c(-[n+]3ccncc3)nncc2c1-c1ccccc1F endpoint_name=Efficacy measured_result=0.18
structure=Cn1ncnc1COc1nn2c(-c3ccccc3F)nncc2c1-c1ccsc1 endpoint_name=Efficacy measured_result=0.21
structure=Cn1ncnc1COc1nn2c(-c3ccccc3F)nncc2c1-c1ccccc1Cl endpoint_name=Efficacy measured_result=0.32
structure=Cn1ncnc1COc1nn2c(-c3ccccc3F)nncc2c1-c1cccc(F)c1 endpoint_name=Efficacy measured_result=0.46
structure=Cn1ncnc1COc1nn2c(-c3ccccc3F)nncc2c1-c1ccccn1 endpoint_name=Efficacy measured_result=0.56
structure=Cn1ncnc1COc1nn2c(-c3ccccc3F)nncc2c1-c1ccccc1 endpoint_name=Efficacy measured_result=0.44
structure=Cn1ncnc1COc1nn2c(-c3cc(F)ccc3F)nncc2c1-c1ccccc1F endpoint_name=Efficacy measured_result=0.52
structure=Cn1ncnc1COc1nn2c(-c3cccs3)nncc2c1-c1ccccc1 endpoint_name=Efficacy measured_result=0.19

###

Documented pKi across a set of compounds
Molecular target: GABA-A receptor; alpha-3/beta-3/gamma-2 (Homo sapiens, UniProt P18507+P28472+P34903)
Sequence (P18507 whole entry): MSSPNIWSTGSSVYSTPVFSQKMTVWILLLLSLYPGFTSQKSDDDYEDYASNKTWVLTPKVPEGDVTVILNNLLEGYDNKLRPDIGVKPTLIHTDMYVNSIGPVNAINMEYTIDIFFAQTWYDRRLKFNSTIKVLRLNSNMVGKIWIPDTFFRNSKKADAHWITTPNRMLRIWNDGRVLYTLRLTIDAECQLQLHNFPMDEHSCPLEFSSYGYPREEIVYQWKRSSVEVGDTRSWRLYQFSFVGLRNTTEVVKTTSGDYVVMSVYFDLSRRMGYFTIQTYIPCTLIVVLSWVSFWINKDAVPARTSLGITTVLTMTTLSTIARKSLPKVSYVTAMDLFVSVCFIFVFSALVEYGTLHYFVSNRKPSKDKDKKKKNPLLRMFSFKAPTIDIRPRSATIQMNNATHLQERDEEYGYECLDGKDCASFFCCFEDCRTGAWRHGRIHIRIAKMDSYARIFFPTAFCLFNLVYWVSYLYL
Sequence (P28472 whole entry): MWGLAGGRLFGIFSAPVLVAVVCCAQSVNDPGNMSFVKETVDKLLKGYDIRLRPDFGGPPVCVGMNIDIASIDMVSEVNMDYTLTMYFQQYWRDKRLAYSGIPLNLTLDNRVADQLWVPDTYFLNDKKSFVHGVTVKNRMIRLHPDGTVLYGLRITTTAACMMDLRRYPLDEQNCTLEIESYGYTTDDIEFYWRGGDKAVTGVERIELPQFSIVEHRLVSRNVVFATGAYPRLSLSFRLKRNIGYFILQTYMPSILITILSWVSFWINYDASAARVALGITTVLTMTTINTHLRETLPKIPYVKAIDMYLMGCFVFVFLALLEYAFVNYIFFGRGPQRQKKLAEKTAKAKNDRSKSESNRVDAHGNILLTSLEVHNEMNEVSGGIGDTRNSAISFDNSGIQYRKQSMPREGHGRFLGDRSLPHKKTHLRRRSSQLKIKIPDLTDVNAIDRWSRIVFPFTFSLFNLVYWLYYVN
Sequence (P34903 whole entry): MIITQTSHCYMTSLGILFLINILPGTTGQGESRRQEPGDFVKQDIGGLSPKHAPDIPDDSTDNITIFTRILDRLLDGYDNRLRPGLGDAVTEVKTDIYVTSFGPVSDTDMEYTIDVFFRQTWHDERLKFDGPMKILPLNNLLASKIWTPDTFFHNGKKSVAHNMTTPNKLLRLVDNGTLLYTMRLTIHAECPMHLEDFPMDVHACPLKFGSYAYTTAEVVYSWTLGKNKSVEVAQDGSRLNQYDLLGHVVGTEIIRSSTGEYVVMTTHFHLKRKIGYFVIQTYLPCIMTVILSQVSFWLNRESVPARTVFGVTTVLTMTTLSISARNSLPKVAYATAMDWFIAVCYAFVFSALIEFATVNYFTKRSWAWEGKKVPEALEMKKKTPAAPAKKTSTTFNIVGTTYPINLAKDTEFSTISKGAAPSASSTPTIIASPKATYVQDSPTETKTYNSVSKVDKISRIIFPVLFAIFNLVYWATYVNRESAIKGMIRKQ
Test: Inhibition of [3H]Ro15-1788 binding to human recombinant GABA-Aalpha3 plus beta-3-gamma-2 receptor expressed in L(tk-) cells
pKi: −log10 of the molar value.
endpoint_name: pKi

structure=Cn1ncnc1COc1nn2c(-c3ccccc3F)nncc2c1-c1cccc(CO)c1 endpoint_name=pKi measured_result=8.18
structure=Cn1ncnc1COc1nn2c(-c3ccccc3F)nncc2c1-c1cc(F)ccc1F endpoint_name=pKi measured_result=9.70
structure=Cn1ncnc1COc1nn2c(-c3cccs3)nncc2c1-c1ccccc1 endpoint_name=pKi measured_result=8.80
structure=Cn1ncnc1COc1nn2c(-c3ccccc3F)nncc2c1-c1ccc(F)cc1 endpoint_name=pKi measured_result=8.20
structure=Cn1ncnc1COc1nn2c(-[n+]3ccncc3)nncc2c1-c1ccccc1F endpoint_name=pKi measured_result=8.57
structure=Cn1ncnc1COc1nn2c(-c3ccccc3F)nncc2c1-c1cccs1 endpoint_name=pKi measured_result=10.00
